# test target: F508delCFTR (Homo sapiens, UniProt P13569, DEL508-508)
# Construct: expressed in transfected cells; host or cells: CFBE41o- human lung derived epithelial cells (CFBE41o-F508delCFTR-HRP), doxycycline-inducible
# Sequence (P13569 with tags, fused parts or gaps DEL508-508): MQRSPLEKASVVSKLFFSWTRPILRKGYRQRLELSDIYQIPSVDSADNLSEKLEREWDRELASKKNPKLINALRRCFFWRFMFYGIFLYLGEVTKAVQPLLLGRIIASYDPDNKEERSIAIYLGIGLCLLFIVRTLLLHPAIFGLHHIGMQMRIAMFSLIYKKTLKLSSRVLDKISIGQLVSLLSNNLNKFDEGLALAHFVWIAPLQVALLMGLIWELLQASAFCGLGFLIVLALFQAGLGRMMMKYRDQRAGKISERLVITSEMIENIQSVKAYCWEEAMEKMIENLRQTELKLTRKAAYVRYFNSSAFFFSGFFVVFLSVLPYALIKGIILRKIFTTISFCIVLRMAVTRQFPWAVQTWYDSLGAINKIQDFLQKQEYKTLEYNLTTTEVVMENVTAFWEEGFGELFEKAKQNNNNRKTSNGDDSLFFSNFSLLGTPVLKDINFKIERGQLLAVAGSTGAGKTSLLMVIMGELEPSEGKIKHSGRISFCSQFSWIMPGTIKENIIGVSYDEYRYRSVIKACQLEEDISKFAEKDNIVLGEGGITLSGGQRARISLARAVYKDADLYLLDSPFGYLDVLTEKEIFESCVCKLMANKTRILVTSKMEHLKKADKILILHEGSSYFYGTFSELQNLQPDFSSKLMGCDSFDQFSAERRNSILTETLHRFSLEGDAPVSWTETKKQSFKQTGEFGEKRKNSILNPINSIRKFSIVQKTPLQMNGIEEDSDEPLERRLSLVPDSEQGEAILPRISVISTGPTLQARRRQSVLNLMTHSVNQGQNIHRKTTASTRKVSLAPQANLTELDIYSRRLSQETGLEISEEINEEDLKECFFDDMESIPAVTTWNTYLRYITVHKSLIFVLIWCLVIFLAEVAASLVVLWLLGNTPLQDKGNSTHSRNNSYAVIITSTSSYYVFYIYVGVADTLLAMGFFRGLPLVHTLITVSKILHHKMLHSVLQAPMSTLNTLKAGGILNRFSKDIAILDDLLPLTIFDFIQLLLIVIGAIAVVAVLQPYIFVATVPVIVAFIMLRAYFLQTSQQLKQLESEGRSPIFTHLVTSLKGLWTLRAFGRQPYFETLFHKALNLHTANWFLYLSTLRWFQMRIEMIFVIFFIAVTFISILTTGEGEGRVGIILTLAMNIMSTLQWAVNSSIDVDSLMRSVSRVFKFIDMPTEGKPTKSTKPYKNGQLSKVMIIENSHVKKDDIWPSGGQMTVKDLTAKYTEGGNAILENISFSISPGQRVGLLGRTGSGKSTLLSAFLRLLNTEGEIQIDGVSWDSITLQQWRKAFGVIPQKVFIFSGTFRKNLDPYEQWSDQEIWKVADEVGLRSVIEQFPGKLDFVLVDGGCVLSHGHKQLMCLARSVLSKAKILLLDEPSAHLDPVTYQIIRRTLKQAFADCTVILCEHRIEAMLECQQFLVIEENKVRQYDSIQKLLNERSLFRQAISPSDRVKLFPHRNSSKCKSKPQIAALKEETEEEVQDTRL
# experiment description: Cell Surface Expression-Horse Radish Peroxidase (CSE-HRP) Assay
# Type: cell-based
# stated conditions: test compound alone, without co-corrector; read-out: EC50 (without co-corrector)
pEC50: −log10 of the molar value.
# maps each entry to its pEC50
quantity: pEC50

[
  {
    "molecule": "COc1ccc(C)c(OC)c1C1(C(=O)NS(=O)(=O)c2cccc3nc(C)ccc23)CC1 [Example I-43]",
    "test target": "F508delCFTR (Homo sapiens, UniProt P13569, DEL508-508)",
    "value observed": "> 5.52"
  },
  {
    "molecule": "COc1ccc(C2CCC2)cc1C1(C(=O)NS(=O)(=O)c2cccn3nccc23)CCC1 [Example I-23]",
    "test target": "F508delCFTR (Homo sapiens, UniProt P13569, DEL508-508)",
    "value observed": "5.00 to 5.52"
  },
  {
    "molecule": "Cc1cnc(OCC(C)C)c(C2(C(=O)NS(=O)(=O)c3cccc4nc(N)ccc34)CC2)c1 [Example I-96]",
    "test target": "F508delCFTR (Homo sapiens, UniProt P13569, DEL508-508)",
    "value observed": "> 5.52"
  }
]
